target: HLA-A*26:01; experiment: IEDB peptide-MHC binding, purified MHC/direct/fluorescence; filed as Kd, often an IC50 or EC50 that approximates it; bounds were set here for any values at or beyond the usual limits of such assays; settings: source organism: Brucella abortus
ATTRIBUTE MEASURED: Kd

Tell us which Kd value is on record for GYSFSIPGY
≥ 20 µM

====

target: HLA-B*07:02; assay: IEDB peptide-MHC binding, purified MHC/direct/fluorescence; filed as Kd, often an IC50 or EC50 that approximates it; bounds were set here for any values at or beyond the usual limits of such assays; conditions: source organism: Mammarenavirus lassaense
ATTRIBUTE MEASURED: Kd

For HLA-B*07:02, give the measured Kd of the entry NQFGTMPSL
≥ 20 µM

====

target: HLA-B*07:02; assay: IEDB peptide-MHC binding, purified MHC/competitive/fluorescence; filed as Kd, often an IC50 or EC50 that approximates it; bounds were set here for any values at or beyond the usual limits of such assays; conditions: source organism: Escherichia coli str. K-12 substr. DH10B
pKd: −log10 of the molar value.
ATTRIBUTE MEASURED: pKd

Tell us which pKd value is on record for QVIFKCVPK
≤ 4.70

====

target: HLA-B*07:02; experiment: IEDB peptide-MHC binding, purified MHC/direct/fluorescence; filed as Kd, often an IC50 or EC50 that approximates it; bounds were set here for any values at or beyond the usual limits of such assays; conditions: source organism: Salmonella enterica subsp. enterica serovar Typhi
ATTRIBUTE MEASURED: Kd (µM)
The response must be a number in µM with no trailing unit.

Tell us which Kd value is on record for LPLIVDTAA
5.75

====

molecular target: HLA-A*29:02; test: IEDB peptide-MHC binding, purified MHC/direct/fluorescence; filed as Kd, often an IC50 or EC50 that approximates it; bounds were set here for any values at or beyond the usual limits of such assays; settings: source organism: Coxiella burnetii Q321
pKd: −log10 of the molar value.
ATTRIBUTE MEASURED: pKd

For HLA-A*29:02, give the measured pKd of the entry DGAEGINPY
≤ 4.70

====

Give pKd for every item shown.
target: HLA-B*51:01; assay: IEDB peptide-MHC binding, purified MHC/direct/fluorescence; filed as Kd, often an IC50 or EC50 that approximates it; bounds were set here for any values at or beyond the usual limits of such assays; details: source organism: Mycobacterium tuberculosis
pKd: −log10 of the molar value.

For HLA-B*51:01, give the measured pKd of the entry RPRCAYLPF
≤ 4.70

For HLA-B*51:01, give the measured pKd of the entry YPARVKCAL
≤ 4.70

====

target: HLA-C*08:02; assay: IEDB peptide-MHC binding, purified MHC/direct/fluorescence; filed as Kd, often an IC50 or EC50 that approximates it; bounds were set here for any values at or beyond the usual limits of such assays; conditions: source organism: Shigella flexneri 2a str. 2457T
pKd: −log10 of the molar value.
ATTRIBUTE MEASURED: pKd

Tell us which pKd value is on record for MSPDNALIY
≤ 4.70

====

target: HLA-A*68:02; test: IEDB peptide-MHC binding, purified MHC/direct/fluorescence; filed as Kd, often an IC50 or EC50 that approximates it; bounds were set here for any values at or beyond the usual limits of such assays; conditions: source organism: Vibrio parahaemolyticus
ATTRIBUTE MEASURED: Kd

Tell us which Kd value is on record for VFMDNAFKK
≥ 20 µM

====

molecular target: HLA-A*02:01; assay: IEDB peptide-MHC binding, purified MHC/competitive/radioactivity; filed as Kd, often an IC50 or EC50 that approximates it; bounds were set here for any values at or beyond the usual limits of such assays; settings: source organism: Lassa virus GA391
ATTRIBUTE MEASURED: pKd
# pKd: negative log10 of molar concentration; output just the value

Tell us which pKd value is on record for VIEEVMNIV
5.20

====

target: HLA-A*01:01; test: IEDB peptide-MHC binding, purified MHC/competitive/radioactivity; filed as Kd, often an IC50 or EC50 that approximates it; bounds were set here for any values at or beyond the usual limits of such assays; settings: source organism: Dengue virus 3 Singapore/8120/1995
ATTRIBUTE MEASURED: Kd (µM)
The response must be a number in µM with no trailing unit.

Tell us which Kd value is on record for VTTWEDVPYL
10.2

====

target: HLA-A*02:06; experiment: IEDB peptide-MHC binding, purified MHC/competitive/fluorescence; filed as Kd, often an IC50 or EC50 that approximates it; bounds were set here for any values at or beyond the usual limits of such assays; settings: source organism: Orthomarburgvirus marburgense
ATTRIBUTE MEASURED: Kd
In your response, put the unit directly after the numeric value.

Tell us which Kd value is on record for GEGSGARLL
1140 nM

====

molecular target: HLA-A*11:01; experiment: IEDB peptide-MHC binding, purified MHC/direct/fluorescence; filed as Kd, often an IC50 or EC50 that approximates it; bounds were set here for any values at or beyond the usual limits of such assays; details: source organism: Coxiella burnetii
ATTRIBUTE MEASURED: pKd
# pKd: negative log10 of molar concentration; output just the value

Tell us which pKd value is on record for SQIRRFNLR
7.87

====

molecular target: HLA-B*39:01; test: IEDB peptide-MHC binding, purified MHC/competitive/fluorescence; filed as Kd, often an IC50 or EC50 that approximates it; bounds were set here for any values at or beyond the usual limits of such assays; conditions: source organism: Salmonella enterica subsp. enterica serovar Paratyphi B str. SPB7
ATTRIBUTE MEASURED: Kd (nM)
The response must be a number in nM with no trailing unit.

Tell us which Kd value is on record for YESSHWLVV
37.2

====

molecular target: HLA-A*02:01; assay: IEDB peptide-MHC binding, purified MHC/competitive/fluorescence; bounds were set here for any values at or beyond the usual limits of such assays; details: source organism: Vaccinia virus
ATTRIBUTE MEASURED: IC50

Tell us which IC50 value is on record for LIEWAMEKS
≥ 408 µM

====

target: HLA-B*40:02; assay: IEDB peptide-MHC binding, purified MHC/competitive/radioactivity; filed as Kd, often an IC50 or EC50 that approximates it; bounds were set here for any values at or beyond the usual limits of such assays; conditions: source organism: Lymphocytic choriomeningitis virus (strain Armstrong)
ATTRIBUTE MEASURED: Kd (nM)
The response must be a number in nM with no trailing unit.

Tell us which Kd value is on record for IEVALRTLL
54.9

====

Give pKd for every item shown.
target: HLA-A*03:01; experiment: IEDB peptide-MHC binding, purified MHC/direct/fluorescence; filed as Kd, often an IC50 or EC50 that approximates it; bounds were set here for any values at or beyond the usual limits of such assays; conditions: source organism: Brucella abortus
pKd: −log10 of the molar value.

Tell us which pKd value is on record for GYSFSIPGY
≤ 4.70

Tell us which pKd value is on record for FSDVSHWWQ
≤ 4.70

====

target: HLA-B*53:01; experiment: IEDB peptide-MHC binding, purified MHC/competitive/radioactivity; filed as Kd, often an IC50 or EC50 that approximates it; bounds were set here for any values at or beyond the usual limits of such assays; conditions: source organism: Dengue virus 3 Martinique/1243/1999
Give pKd for every item shown.
# pKd: negative log10 of molar concentration; output just the value

For HLA-B*53:01, give the measured pKd of the entry LPETMETLLL
7.61

For HLA-B*53:01, give the measured pKd of the entry AAVEDEDFW
6.48

For HLA-B*53:01, give the measured pKd of the entry HPGFTILAL
9.52

For HLA-B*53:01, give the measured pKd of the entry LPVCQSSSM
6.00

====

target: HLA-A*02:06; assay: IEDB peptide-MHC binding, purified MHC/competitive/radioactivity; filed as Kd, often an IC50 or EC50 that approximates it; bounds were set here for any values at or beyond the usual limits of such assays; conditions: source organism: SARS coronavirus Tor2
Give pKd for every item shown.
# pKd: negative log10 of molar concentration; output just the value

Tell us which pKd value is on record for LLALQQLEV
7.38

Tell us which pKd value is on record for LLFLVLIMLI
5.08

Tell us which pKd value is on record for TMADLVYAL
7.33

Tell us which pKd value is on record for FVDGVPFVV
9.04

Tell us which pKd value is on record for TLNEDLLEI
7.25

====

target: HLA-B*15:17; test: IEDB peptide-MHC binding, purified MHC/direct/fluorescence; filed as Kd, often an IC50 or EC50 that approximates it; bounds were set here for any values at or beyond the usual limits of such assays; conditions: source organism: Campylobacter jejuni
ATTRIBUTE MEASURED: Kd

Tell us which Kd value is on record for VSIRGSHHK
≥ 20 µM
